System: SN12C renal
Experiment: NCI-60 one-dose screen, 48 h (100 = growth as untreated, 0 = no growth, -100 = all killed)
Conditions: 10 µM unless noted
The panel holds about 83,000 compounds, 20% with a hit somewhere; the sample as a whole holds those more often.
Please respond with reported growth for every item in the list.
Write the value in % as a bare number.

Lab note: measured growth of CC1=CC=C(NC(=O)/C=C/c2ccccc2)CC1Nc1nccc(-c2cccnc2)n1 (centres undefined) was 50.3

Looking up N#Cc1ccccc1-c1ccc(Cn2c(-c3cscn3)nc3c(Cl)cccc32)cc1 , I see its growth listed as 91.2

growth for Cc1cc(N2CCN(CC(=O)Nc3ccc4c(ccn4Cc4ccccc4)c3)CC2)nc(N2CCCCCC2)n1 is 54.8

GET /value?item= C[C@@H]1O[C@@H](O[C@H]2[C@@H](OC(=O)[C@]34CCC(C)(C)C[C@H]3C3=CC[C@@H]5[C@@]6(C)C[C@H](O)[C@H](O[C@@H]7O[C@H](CO)[C@@H](O)[C@H](O)[C@H]7O)[C@@](C)(CO)[C@@H]6CC[C@@]5(C)[C@]3(C)C[C@H]4O)OC[C@@H](O)[C@@H]2O)[C@H](O)[C@H](O[C@@H]2OC[C@@H](O)[C@H](O[C@@H]3OC[C@](O)(CO)[C@H]3O[C@@H]3OC[C@@H](O)[C@H](O)[C@H]3O)[C@H]2O)[C@H]1O[C@@H]1OC[C@](O)(CO)[C@H]1O &field=growth returns 25.5

Given item COc1ccc2c(c1)CC[C@@H]1[C@@H]2CC[C@]2(C)C3C(=CCC4C(=O)N(c5ccccc5)C(=O)C43)C[C@@H]12 (some centres undefined) , the value recorded as its growth is 108

What the record says about CC(=O)N1N=C(c2ccc(Nc3nc(Nc4ccc(F)cc4)nc(Nc4ccc(Cl)cc4)n3)cc2)CC1c1ccc(N(C)C)cc1 (centres undefined) : growth is 66

// CCCCCCNC(=O)Oc1ccc(/C(=C(/CC)Cc2ccccc2)c2ccc(OCCCN(C)C)cc2)cc1 : growth value = 87.1

Lookup result for N#CC(Cc1cccc2ccccc12)c1cc2ccccc2[nH]1 (centres undefined) ; measured growth: 90.2

What the record says about COc1ccc(N2CCN(S(=O)(=O)c3oc(-c4ccccc4)nc3C#N)CC2)cc1 : growth is 68.9
